Below is a list of entries, each paired with its recorded folding stability dG value.
B1: EEHEE_rd4_0469 (parent)
chain: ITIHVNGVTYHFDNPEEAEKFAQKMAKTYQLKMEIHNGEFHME

- Variants of: B1
- method: folding stability dG (cDNA display proteolysis); higher = more stable
- applied conditions: PBS, room temperature
measured parameter: folding stability dG (kcal/mol)

variant_identifier=K27D measured_parameter="folding stability dG" experimental_value=1.5
variant_identifier=G7H measured_parameter="folding stability dG" experimental_value=1.13
variant_identifier=E39W measured_parameter="folding stability dG" experimental_value=0.978
variant_identifier=A26S measured_parameter="folding stability dG" experimental_value=1.04
variant_identifier=T9R measured_parameter="folding stability dG" experimental_value=1.4
variant_identifier=H4F measured_parameter="folding stability dG" experimental_value=1.08
variant_identifier=E16Y measured_parameter="folding stability dG" experimental_value=1.19
variant_identifier=E34C measured_parameter="folding stability dG" experimental_value=2.43
variant_identifier=N37F measured_parameter="folding stability dG" experimental_value=1.19
variant_identifier=T2K measured_parameter="folding stability dG" experimental_value=1.31
variant_identifier=A18T measured_parameter="folding stability dG" experimental_value=0.325
variant_identifier=I1W measured_parameter="folding stability dG" experimental_value=1.32
variant_identifier=I1Y measured_parameter="folding stability dG" experimental_value=1.16
variant_identifier=N14W measured_parameter="folding stability dG" experimental_value=1.05
variant_identifier=H4K measured_parameter="folding stability dG" experimental_value=0.918
variant_identifier=V8R measured_parameter="folding stability dG" experimental_value=1.43
variant_identifier=E17Y measured_parameter="folding stability dG" experimental_value=0.867
variant_identifier=I3A measured_parameter="folding stability dG" experimental_value=0.525
variant_identifier=T2F measured_parameter="folding stability dG" experimental_value=1.42
variant_identifier=E16Q measured_parameter="folding stability dG" experimental_value=1.1
variant_identifier=P15I measured_parameter="folding stability dG" experimental_value=1.27
variant_identifier=M25Q measured_parameter="folding stability dG" experimental_value=0.418

Values from the MegaScale stability set (Tsuboyama et al. 2023)
